Entries annotated with measured MIC90
Tested on: Peptostreptococcus magnus
Assay: Agar dilution MIC
Format: cell-based
Details: Finegoldia magna; 13 isolates; read-out: Minimal Inhibitory Concentration 90% (MIC90)
// return numeric value only (unit: µg/mL, not printed)

| compound | MIC90 / µg/mL |
| --- | --- |
| CO/N=C1\CN(c2nc3c(cc2F)c(=O)c(C(=O)O)cn3C2CC2)CC1CN (racemic) | 0.06 |

Field: next compound
Query :: Give MIC90 (Peptostreptococcus magnus) of the following compound: `CCC[C@@H]1C[C@@H](C(=O)N[C@@H]([C@H]2O[C@H](SC)[C@H](O)[C@@H](O)[C@H]2O)[C@H](C)Cl)N(C)C1`
Result :: 2
